Settings: in acetonitrile, 283.15 K
Recorded Metric: solubility (mole fraction)

{"columns": ["Smiles String", "Recorded Metric", "Reported Value"],
 "data": [
  ["CC(=O)Nc1ccc(OC(=O)c2ccccc2OC(C)=O)cc1", "solubility (mole fraction)", 0.000855]
]}

----------
Conditions: in ethanol, 293.15 K

{"columns": ["Smiles String", "solubility (mole fraction)"],
 "data": [
  ["CC(=O)Nc1ccc(OC(=O)c2ccccc2OC(C)=O)cc1", 0.000326]
]}

----------
Conditions: in isopropanol, 293.15 K

{"columns": ["Smiles String", "solubility (mole fraction)"],
 "data": [
  ["CC(=O)Nc1ccc(OC(=O)c2ccccc2OC(C)=O)cc1", 0.000178]
]}

----------
Details: in ethanol, 313.15 K

{"columns": ["Smiles String", "solubility (mole fraction)"],
 "data": [
  ["CC(=O)Nc1ccc(OC(=O)c2ccccc2OC(C)=O)cc1", 0.000733]
]}

----------
Details: in n-propanol, 278.15 K

{"columns": ["Smiles String", "solubility (mole fraction)"],
 "data": [
  ["CC(=O)Nc1ccc(OC(=O)c2ccccc2OC(C)=O)cc1", "8.8e-05"]
]}

----------
Details: in 1,4-dioxane, 303.15 K

{"columns": ["Smiles String", "solubility (mole fraction)"],
 "data": [
  ["CC(=O)Nc1ccc(OC(=O)c2ccccc2OC(C)=O)cc1", 0.0025]
]}

----------
Details: in 2-butanone, 283.15 K

{"columns": ["Smiles String", "solubility (mole fraction)"],
 "data": [
  ["CC(=O)Nc1ccc(OC(=O)c2ccccc2OC(C)=O)cc1", 0.00267]
]}

----------
Details: in acetonitrile, 278.15 K

{"columns": ["Smiles String", "solubility (mole fraction)"],
 "data": [
  ["CC(=O)Nc1ccc(OC(=O)c2ccccc2OC(C)=O)cc1", 0.000681]
]}

----------
Conditions: in 2-butanone, 278.15 K
Recorded Metric: solubility (mole fraction)

{"columns": ["Smiles String", "Recorded Metric", "Reported Value"],
 "data": [
  ["CC(=O)Nc1ccc(OC(=O)c2ccccc2OC(C)=O)cc1", "solubility (mole fraction)", 0.0025]
]}

----------
Settings: in 2-butanone, 313.15 K

{"columns": ["Smiles String", "solubility (mole fraction)"],
 "data": [
  ["CC(=O)Nc1ccc(OC(=O)c2ccccc2OC(C)=O)cc1", 0.00429]
]}

----------
Conditions: in acetonitrile, 288.15 K

{"columns": ["Smiles String", "solubility (mole fraction)"],
 "data": [
  ["CC(=O)Nc1ccc(OC(=O)c2ccccc2OC(C)=O)cc1", 0.00105]
]}

----------
Conditions: in DMF, 308.15 K
Recorded Metric: solubility (mole fraction)

{"columns": ["Smiles String", "Reported Value"],
 "data": [
  ["CC(=O)Nc1ccc(OC(=O)c2ccccc2OC(C)=O)cc1", 0.0242]
]}

----------
Conditions: in 1,4-dioxane, 298.15 K
Recorded Metric: solubility (mole fraction)

{"columns": ["Smiles String", "Recorded Metric", "Reported Value"],
 "data": [
  ["CC(=O)Nc1ccc(OC(=O)c2ccccc2OC(C)=O)cc1", "solubility (mole fraction)", 0.00204]
]}

----------
Conditions: in isopropanol, 318.15 K
Recorded Metric: solubility (mole fraction)

{"columns": ["Smiles String", "Recorded Metric", "Reported Value"],
 "data": [
  ["CC(=O)Nc1ccc(OC(=O)c2ccccc2OC(C)=O)cc1", "solubility (mole fraction)", 0.000493]
]}
